molecular target: Fes (Homo sapiens, UniProt P07332); construct: purchased Upstate 14-473; test: Fes kinase assay; format: biochemical; conditions: read-out: FES Inhibition (IC50)
Sequence (P07332 whole entry): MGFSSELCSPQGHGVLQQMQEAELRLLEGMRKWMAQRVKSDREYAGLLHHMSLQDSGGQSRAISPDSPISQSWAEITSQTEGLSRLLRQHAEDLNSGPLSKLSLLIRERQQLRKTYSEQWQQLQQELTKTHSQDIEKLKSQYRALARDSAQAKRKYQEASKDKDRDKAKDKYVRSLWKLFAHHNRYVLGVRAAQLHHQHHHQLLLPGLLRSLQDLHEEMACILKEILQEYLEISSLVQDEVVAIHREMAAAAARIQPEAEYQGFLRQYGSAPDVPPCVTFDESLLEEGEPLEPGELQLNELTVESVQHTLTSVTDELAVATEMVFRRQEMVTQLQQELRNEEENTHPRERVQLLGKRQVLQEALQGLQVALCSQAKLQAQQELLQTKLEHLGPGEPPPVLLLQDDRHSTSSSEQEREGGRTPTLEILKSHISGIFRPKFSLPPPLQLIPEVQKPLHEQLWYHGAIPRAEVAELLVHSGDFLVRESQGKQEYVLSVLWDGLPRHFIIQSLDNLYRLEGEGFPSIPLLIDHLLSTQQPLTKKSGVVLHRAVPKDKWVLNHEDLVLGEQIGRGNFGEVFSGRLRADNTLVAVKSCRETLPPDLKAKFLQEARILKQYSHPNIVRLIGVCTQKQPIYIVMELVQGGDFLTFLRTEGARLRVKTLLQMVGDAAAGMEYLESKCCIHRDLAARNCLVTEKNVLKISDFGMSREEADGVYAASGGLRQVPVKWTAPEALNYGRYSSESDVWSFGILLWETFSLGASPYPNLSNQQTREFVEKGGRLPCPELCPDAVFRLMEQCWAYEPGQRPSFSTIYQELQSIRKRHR
Structures can show the parent of a compound that is named as a salt.
Here the recorded IC50 is given for each entry.

molecule: COCCN1CCN(Cc2ccc(-c3n[nH]c4c3C(=O)c3c(NC(=O)NN5CCOCC5)cccc3-4)cc2)CC1 [Compound B16, dihydrochloride]
system: Fes (Homo sapiens, UniProt P07332)
metric: IC50
result: < 0.1 µM

Next item in the queue.
Exam item: Return IC50 measured with Fes (Homo sapiens, UniProt P07332) given this molecule: CC(C)N1CCN(C(=O)COc2ccc(-c3n[nH]c4c3C(=O)c3c(NC(=O)NN5CCOCC5)cccc3-4)cc2)CC1 [Compound A37]
Marked response: < 0.1 µM

###

target: GSK3β (Homo sapiens); construct: purchased Upstate 14-306; experiment: GSK3β kinase assay; assay type: biochemical; details: kinase panel, 10 μM ATP; read-out: GSK3β IC50
Sequence (P49841 whole entry): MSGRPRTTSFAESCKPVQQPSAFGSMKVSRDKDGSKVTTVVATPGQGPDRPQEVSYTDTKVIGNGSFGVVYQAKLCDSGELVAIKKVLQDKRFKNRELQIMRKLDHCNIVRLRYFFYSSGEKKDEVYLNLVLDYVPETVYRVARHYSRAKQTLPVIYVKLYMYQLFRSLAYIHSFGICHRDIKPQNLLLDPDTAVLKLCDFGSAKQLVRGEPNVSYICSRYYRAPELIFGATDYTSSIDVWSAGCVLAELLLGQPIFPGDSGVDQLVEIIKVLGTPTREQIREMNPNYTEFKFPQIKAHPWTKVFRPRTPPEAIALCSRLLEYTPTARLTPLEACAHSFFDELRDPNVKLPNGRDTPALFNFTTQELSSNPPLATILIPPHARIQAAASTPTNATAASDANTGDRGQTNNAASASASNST
pIC50: −log10 of the molar value. Counter-ions that a name gives are not always drawn.
Here the recorded pIC50 is given for each entry.

compound: CC(C)N1CCN(C(=O)COc2ccc(-c3n[nH]c4c3C(=O)c3c(NC(=O)NN5CCOCC5)cccc3-4)cc2)CC1
pIC50: > 8.52

Next item in the queue.
Exam item: Return reported pIC50; argument: COCCN1CCN(Cc2ccc(-c3n[nH]c4c3C(=O)c3c(NC(=O)NN5CCOCC5)cccc3-4)cc2)CC1 [Compound B16, dihydrochloride]
Marked response: > 7.00

###

target: GSK3β (Homo sapiens); construct: purchased Upstate 14-306; assay: GSK3β kinase assay; type: biochemical; conditions: read-out: GSK3B Inhibition (IC50)
Where a name gives a salt, the structure may show the parent alone.
Here the recorded IC50 is given for each entry.

molecule: COCCN1CCN(Cc2ccc(-c3n[nH]c4c3C(=O)c3c(NC(=O)NN5CCOCC5)cccc3-4)cc2)CC1 [Compound B16, dihydrochloride]
system: GSK3β (Homo sapiens)
result: < 5 nM

Next item in the queue.
Exam item: Return reported IC50; argument: `CC(C)N1CCN(C(=O)COc2ccc(-c3n[nH]c4c3C(=O)c3c(NC(=O)NN5CCOCC5)cccc3-4)cc2)CC1`
Marked response: < 5 nM

###

target: Cdk4 (Homo sapiens, UniProt P11802)
Sequence (P11802 whole entry, species assumed): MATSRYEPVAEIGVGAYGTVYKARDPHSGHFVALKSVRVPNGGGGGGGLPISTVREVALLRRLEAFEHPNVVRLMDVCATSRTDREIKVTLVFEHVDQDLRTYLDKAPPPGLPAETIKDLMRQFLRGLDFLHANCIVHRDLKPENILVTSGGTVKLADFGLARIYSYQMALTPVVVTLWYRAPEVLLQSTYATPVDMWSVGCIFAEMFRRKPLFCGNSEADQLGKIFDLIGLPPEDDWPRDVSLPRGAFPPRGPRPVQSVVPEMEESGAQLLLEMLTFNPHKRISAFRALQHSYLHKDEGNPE
Sequence (P24385 whole entry partner, species assumed): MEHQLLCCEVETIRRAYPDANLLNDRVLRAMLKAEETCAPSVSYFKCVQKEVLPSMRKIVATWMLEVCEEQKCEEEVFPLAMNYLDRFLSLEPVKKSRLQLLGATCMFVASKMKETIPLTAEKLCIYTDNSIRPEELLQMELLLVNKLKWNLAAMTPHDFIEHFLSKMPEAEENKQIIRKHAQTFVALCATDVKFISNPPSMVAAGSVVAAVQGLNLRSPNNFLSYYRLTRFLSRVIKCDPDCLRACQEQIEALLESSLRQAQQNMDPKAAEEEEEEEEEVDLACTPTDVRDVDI
Counter-ions that a name gives are not always drawn.
metric: IC50

molecule: CC(C)N1CCN(C(=O)COc2ccc(-c3n[nH]c4c3C(=O)c3c(NC(=O)NN5CCOCC5)cccc3-4)cc2)CC1
system: Cdk4 (Homo sapiens, UniProt P11802)
result: < 50 nM

Next item in the queue.
Exam item: Return IC50 measured with Cdk4 (Homo sapiens, UniProt P11802) given this molecule: COCCN1CCN(Cc2ccc(-c3n[nH]c4c3C(=O)c3c(NC(=O)NN5CCOCC5)cccc3-4)cc2)CC1 [Compound B16, dihydrochloride]
Marked response: > 100 nM

###

pIC50: −log10 of the molar value. Where a name gives a salt, the structure may show the parent alone.
Parameter 'readout' = pIC50; parameter 'system' = UniProt:P50613.
Sequence (P50613 whole entry, species assumed): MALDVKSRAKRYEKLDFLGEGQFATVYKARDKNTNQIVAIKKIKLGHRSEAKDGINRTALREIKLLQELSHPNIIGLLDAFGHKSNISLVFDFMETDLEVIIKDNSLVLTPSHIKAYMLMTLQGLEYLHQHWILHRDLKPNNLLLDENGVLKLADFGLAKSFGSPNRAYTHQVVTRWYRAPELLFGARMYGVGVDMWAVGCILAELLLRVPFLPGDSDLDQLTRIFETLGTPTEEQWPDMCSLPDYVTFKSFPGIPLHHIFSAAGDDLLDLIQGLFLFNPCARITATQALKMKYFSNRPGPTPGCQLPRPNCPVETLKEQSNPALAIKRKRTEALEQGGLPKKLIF
Sequence (P51946 whole entry partner, species assumed): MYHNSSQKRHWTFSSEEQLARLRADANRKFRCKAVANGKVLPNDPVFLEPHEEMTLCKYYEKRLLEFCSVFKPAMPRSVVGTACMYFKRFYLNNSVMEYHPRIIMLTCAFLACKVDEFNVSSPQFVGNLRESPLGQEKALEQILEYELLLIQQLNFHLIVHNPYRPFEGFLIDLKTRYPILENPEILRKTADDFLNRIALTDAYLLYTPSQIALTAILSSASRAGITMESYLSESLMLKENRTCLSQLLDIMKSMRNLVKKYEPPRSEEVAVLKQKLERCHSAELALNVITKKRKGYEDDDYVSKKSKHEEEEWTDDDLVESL
Sequence (P51948 whole entry partner, species assumed): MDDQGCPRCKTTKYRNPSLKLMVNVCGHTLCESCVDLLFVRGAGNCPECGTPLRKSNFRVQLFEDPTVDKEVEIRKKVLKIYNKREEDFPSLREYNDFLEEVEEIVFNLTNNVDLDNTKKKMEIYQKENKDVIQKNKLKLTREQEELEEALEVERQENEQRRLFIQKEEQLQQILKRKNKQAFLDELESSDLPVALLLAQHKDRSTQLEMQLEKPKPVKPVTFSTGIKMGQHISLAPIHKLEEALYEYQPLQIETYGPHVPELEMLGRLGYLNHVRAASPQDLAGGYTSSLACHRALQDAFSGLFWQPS

compound: CC(C)N1CCN(C(=O)COc2ccc(-c3n[nH]c4c3C(=O)c3c(NC(=O)NN5CCOCC5)cccc3-4)cc2)CC1
pIC50: > 6.30

Next item in the queue.
Exam item: Return pIC50 measured with UniProt:P50613 given this compound: COCCN1CCN(Cc2ccc(-c3n[nH]c4c3C(=O)c3c(NC(=O)NN5CCOCC5)cccc3-4)cc2)CC1 [Compound B16, dihydrochloride]
Marked response: > 7.30

Taken from patent US20080146555A1.
